Biological target: human GIP receptor (hGIPR) (Homo sapiens)
Construct: expressed in transfected cells
Sequence (P48546 22-466): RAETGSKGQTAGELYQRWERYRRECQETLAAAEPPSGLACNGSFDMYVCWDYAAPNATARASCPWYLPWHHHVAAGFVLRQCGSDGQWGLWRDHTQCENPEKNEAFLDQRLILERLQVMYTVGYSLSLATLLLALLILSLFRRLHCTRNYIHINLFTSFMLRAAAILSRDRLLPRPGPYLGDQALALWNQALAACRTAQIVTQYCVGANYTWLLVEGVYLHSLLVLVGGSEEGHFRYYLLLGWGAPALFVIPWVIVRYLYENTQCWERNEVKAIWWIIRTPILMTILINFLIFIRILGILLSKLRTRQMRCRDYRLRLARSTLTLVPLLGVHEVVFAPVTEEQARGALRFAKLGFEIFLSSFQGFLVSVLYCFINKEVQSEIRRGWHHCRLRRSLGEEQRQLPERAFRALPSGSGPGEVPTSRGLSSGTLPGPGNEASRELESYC
Assay: GIP receptor assay, method A (CRE-luciferase reporter, BHK cells)
Assay type: cell-based
Details: method A, absence of HSA; read-out: hGIPR Potency, no HSA, EC50
Numbered stars: 1 amine (or outer) side, 2 acyl side, 3 side chain; on linkers, the order of the positions; unused ones are H or OH. Square brackets hold non-standard residues; d marks the D form. Side chains are listed from the residue outwards. * marks the point of attachment. C18 diacid = O=C(O)CCCCCCCCCCCCCCCCC(=O)*; C16 diacid = O=C(O)CCCCCCCCCCCCCCC(=O)*; γGlu = O=C(O)[C@H](CCC(=O)[*:2])N[*:1]; AEEA = NCCOCCOCC(=O)O; Aib = CC(C)(N)C(=O)O
Measurement label: EC50
Answer with the figure and its unit, nothing else.

Reference set (4 entries):
Substance: Y[Aib]EGTFTSDYSILLEEQAAREFIEWLLAGGPSSGALAQTLAQTLASHLSTAQTQRLSAELHK([AEEA-AEEA-γGlu-C16 diacid])LATLPRTETGSGSP-NH2 [Compound 59]
Value reported: 7.72 pM

Substance: Y[Aib]EGTFTSDYSILLEEQAAREFIEWLLAGGPSK([AEEA-AEEA-γGlu-C18 diacid])GALAQTLFVNQASELSTAALGRLSAELHELATLPRTETGSGSP-NH2 [Compound 24]
Value reported: 2.34 pM

Substance: H[Aib]HGTFTSDYSILLEEQAAREFIEWLLAGGPSRGEASHLSTAQTQRLSAELHK([AEEA-AEEA-γGlu-C18 diacid])LATLPRTETGSGSP-NH2 [Compound 69]
Value reported: 1.9 pM

Substance: H[Aib]HGTFTSDYSILLEEQAAREFIEWLLAGGPSSGEASHLSTAALGRLSAELHRLATLPK([AEEA-AEEA-γGlu-C18 diacid])TETGSGSP-NH2 [Compound 90]
Value reported: 5.4 pM

Asked: Which measured EC50 belongs to Y[Aib]EGTFTSDYSILLEEQAAREFIEWLLAGGPSSGAGQAPGQAPGASHLSTAALGRLSAELHK([AEEA-AEEA-γGlu-C18 diacid])LATLPRTETGSGSP-NH2 [Compound 53] , tested on human GIP receptor (hGIPR) (Homo sapiens)?
Given back: 3.25 pM

* * *

Catalogue of EC50 readings, one per entry.
Biological target: human amylin receptor (hAMYR3) (Homo sapiens, UniProt O60896+P30988)
Construct: host or cells: BHK cells (Hollex-1 line expressing hCTR(a) and CRE-Luc), further transfected with human RAMP3
Sequence (P30988 25-474): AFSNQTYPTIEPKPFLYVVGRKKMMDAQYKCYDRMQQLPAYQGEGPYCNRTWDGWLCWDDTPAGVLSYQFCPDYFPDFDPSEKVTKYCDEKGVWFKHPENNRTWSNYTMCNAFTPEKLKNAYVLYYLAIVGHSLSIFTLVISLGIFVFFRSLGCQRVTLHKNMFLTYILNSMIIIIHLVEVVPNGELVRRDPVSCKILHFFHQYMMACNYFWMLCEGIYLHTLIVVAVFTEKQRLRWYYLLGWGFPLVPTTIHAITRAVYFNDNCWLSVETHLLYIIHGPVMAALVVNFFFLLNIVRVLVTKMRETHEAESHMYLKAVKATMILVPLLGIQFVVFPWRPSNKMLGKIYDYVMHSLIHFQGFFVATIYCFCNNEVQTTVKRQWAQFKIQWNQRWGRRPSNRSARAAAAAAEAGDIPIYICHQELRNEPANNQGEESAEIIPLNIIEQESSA
Sequence (O60896 24-148): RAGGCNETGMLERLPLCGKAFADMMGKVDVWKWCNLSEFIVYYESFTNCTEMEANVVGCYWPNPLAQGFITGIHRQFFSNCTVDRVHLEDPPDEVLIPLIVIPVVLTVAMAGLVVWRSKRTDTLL
Assay: Amylin receptor assay, method A (CRE-luciferase reporter, BHK cells)
Format: cell-based
Conditions: method A, absence of HSA; read-out: hAMYR3 Potency, no HSA, EC50
Numbered stars: 1 amine (or outer) side, 2 acyl side, 3 side chain; on linkers, the order of the positions; unused ones are H or OH. Square brackets hold non-standard residues; d marks the D form. Side chains are listed from the residue outwards. * marks the point of attachment. C18 diacid = O=C(O)CCCCCCCCCCCCCCCCC(=O)*; γGlu = O=C(O)[C@H](CCC(=O)[*:2])N[*:1]; AEEA = NCCOCCOCC(=O)O; Aib = CC(C)(N)C(=O)O
Answer with the figure and its unit, nothing else.

Reference set (2 entries):
Substance: H[Aib]HGTFTSDYSILLEEQAAREFIEWLLAGGPSK([AEEA-AEEA-γGlu-C18 diacid])GEASQLSTAALGRLSAELHHLATLPRTETGSGSP-NH2 [Compound 66]
Target under test: human amylin receptor (hAMYR3) (Homo sapiens, UniProt O60896+P30988)
EC50: 2.32 pM

Substance: H[Aib]HGTFTSDYSILLEEQAAREFIEWLLAGGPSSGEASHLSTAALGRLSAK([AEEA-AEEA-γGlu-C18 diacid])LHRLATLPRTETGSGSP-NH2 [Compound 87]
Target under test: human amylin receptor (hAMYR3) (Homo sapiens, UniProt O60896+P30988)
EC50: 4.99 pM

Attention now shifts to the item below.
Asked: # query: EC50 of entry Y[Aib]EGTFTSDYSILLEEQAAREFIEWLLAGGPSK([AEEA-AEEA-γGlu-C18 diacid])GEASELSTAQLGRLSAELHRLATLPRTETGSGSP-NH2 [Compound 27]
Given back: 3.82 pM
